Value source: ChEMBL document CHEMBL5725522

# tested system: Tyrosine-protein kinase BTK (Homo sapiens, UniProt Q06187)
# Sequence (Q06187 whole entry): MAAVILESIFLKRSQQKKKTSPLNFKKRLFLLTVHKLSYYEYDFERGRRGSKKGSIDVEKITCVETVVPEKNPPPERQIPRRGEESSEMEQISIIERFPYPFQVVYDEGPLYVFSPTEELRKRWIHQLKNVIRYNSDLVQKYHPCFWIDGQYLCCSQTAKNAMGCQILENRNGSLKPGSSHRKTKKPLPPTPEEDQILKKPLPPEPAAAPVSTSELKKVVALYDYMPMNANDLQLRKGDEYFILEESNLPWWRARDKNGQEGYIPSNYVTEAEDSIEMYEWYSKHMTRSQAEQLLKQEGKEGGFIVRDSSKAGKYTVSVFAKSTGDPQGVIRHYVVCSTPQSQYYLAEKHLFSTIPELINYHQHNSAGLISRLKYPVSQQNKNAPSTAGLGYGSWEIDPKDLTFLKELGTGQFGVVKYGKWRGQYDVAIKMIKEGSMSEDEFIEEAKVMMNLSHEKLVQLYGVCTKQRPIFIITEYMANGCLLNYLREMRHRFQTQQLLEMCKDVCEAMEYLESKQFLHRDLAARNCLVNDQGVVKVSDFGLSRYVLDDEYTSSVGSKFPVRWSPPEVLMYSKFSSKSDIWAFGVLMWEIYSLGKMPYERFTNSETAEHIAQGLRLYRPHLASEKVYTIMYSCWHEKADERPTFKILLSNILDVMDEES
# method notes: TR-FRET (Time Resolved FRET) Assay: This BTK competition assay measures compound potency (IC50) for the inactivated state of Bruton's Tyrosine Kinase using FRET (Förster/Fluorescence Resonance Energy Transfer) technology. The BTK-Eu complex was incubated on ice one hour prior to use at a starting concentration of 50 nM BTK-Bioease: 10 nM Eu-streptavidin (Perkin-Elmer Catalog#AD0062). The assay buffer consisted of 20 mM HEPES (pH 7.15), 0.1 mM DTT, 10 mM MgCl2, 0.5 mg/ml BSA with 3% Kinase Stabilizer (Fremont Biosolutions, Catalog #STB-K02). After 1 h, the reaction mixture from above was diluted 10 fold in assay buffer to make 5 nM BTK: 1 nM Eu-Streptavidin complex (donor fluorophore). 18 μl of a mixture of 0.11 nM BTK-Eu and 0.11 nM Kinase Tracer 178 (Invitrogen, Catalog #PV5593,) with BTK-Eu alone as no negative control, was then dispensed into 384-well flat bottom plates (Greiner, 784076). Compounds to be tested in assay were prepared as 10× concentrations and serial dilution in half-log increments was performed in DMSO so as to generate 10 point curves. To initiate the FRET reaction, compounds prepared as 10× stock in DMSO was added to the plates and the plates were incubated 18-24 h at 14° C.After the incubation the plates were read on a BMG Pherastar Fluorescent plate reader (or equivalent) and used to measure the emission energy from the europium donor fluorophore (620 nm emission) and the FRET (665 nm emission).
property measured: IC50 (nM)
Write the number in nM without appending the unit.

Input line: Could you tell me which IC50 is on file for CN1CCC(NC(=O)c2ccc3[nH]c(C(=O)c4cnn(-c5ccc(Oc6ccccc6C(=O)N(C)C)cc5Cl)c4N)cc3c2)C1 (configuration not stated) ?
Output line: 2.9
